biological target: SARS2 coronavirus 3CL protease (Severe acute respiratory syndrome coronavirus 2); assay: biochemical; conditions: 5 nM enzyme, 30 min pre-incubation with compound, 15 μM peptide substrate, 4 h at room temperature; read-out: FRET Potency (nM); IC50 values in the SARS2 3CLPro FRET assay
Item-by-item account of IC50
Provide only the numeric value, understood in nM.

Need IC50, item `CNC(=O)C(=O)[C@H](C[C@@H]1C[C@@H](C)NC1=O)NC(=O)c1cc(Cl)cc(Cl)c1NC(=O)c1ccnc(C(F)(F)F)c1`
5.6

Need IC50, item `CNC(=O)C(=O)[C@H](C[C@@H]1C[C@@H](C)NC1=O)NC(=O)c1cc(Cl)ccc1NC(=O)OCC(F)(F)F`
7.2

---
Need IC50, item CNC(=O)C(=O)[C@H](C[C@@H]1C[C@@H](C)NC1=O)NC(=O)c1cc(Cl)ccc1NC(=O)OC1CC1(F)F (some centres unmarked) [Example 171]
3.2

Need IC50, item `CNC(=O)C(=O)[C@H](C[C@@H]1C[C@@H](C)NC1=O)NC(=O)c1cc(Cl)ccc1NC(=O)C(C)C`
5.6
